Measured on: T1, full-length CD25 (human, UniProt P01589 22-186, limits assumed)
T1 construct: The assays used soluble 'full-length CD25'; also called Hu CD25; IL-2 receptor alpha chain
T1 chain: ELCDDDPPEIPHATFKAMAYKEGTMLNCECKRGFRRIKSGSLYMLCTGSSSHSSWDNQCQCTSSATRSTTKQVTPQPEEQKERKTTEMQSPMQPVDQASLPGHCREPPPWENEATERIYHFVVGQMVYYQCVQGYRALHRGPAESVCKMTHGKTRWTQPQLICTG
Method notes: Octet biolayer interferometry, human IgG1 against CD25
For each entry below, report its pKd value.
Keep it numeric: pKd is minus log10 of the concentration in mol/L.

[ask] I would be grateful if you could share the reported pKd for YU392-H04 (antibody, Tested as full-length human IgG1) scFv: QVQLQESGPGLVKPSGTLSLTCAVSGGSISSSNWWSWVRQPPGKGLEWIGEIYHSGSTNYNPSLKSRVTISVDKSKNQFSLKLSSVTAADTAVYYCARVNYGDYDWYFDLWGRGTLVTVSSQPVLTQPPSASGTPGQRVTISCSGSSSNIGSNFVTWYQQLPGTAPKLLIYSNNQRPSGVSDRFSASKSGTSASLAISRLQSQDEAEYYCAAWDDSLRSYVFGSGTKVTVV .
[reply] 8.04

[ask] Query (binder): YU400-D09 (antibody, Tested as full-length human IgG1) scFv: PGSSVKVSCKASGGTFSSYAISWVRQAPGQGLEWMGGIIPIFGTANYAQKFQGRVTITADESTSTAYMELSSLRSEDTAVYYCARDFNPFSITIFEMDVWGQGTTVTVSSQSVLTQPPSVSAAPGQKVTISCSGSSSNIGNNYVSWYQQLPGTAPKLLIYDNNKRPSGIPDRFSGSKSGTSATLGITGLQTGDEADYYCGTWDSSLSALVFGGGTKLTVL ; field requested: pKd
[reply] 7.26
